System: Mycobacteroides abscessus
Experiment: Antibacterial activity against nonpigmented rapidly growing Mycobacterium abscessus after 3 days by broth microdilution method
Format: functional
Conditions: 72 h
value-type: MIC50 (µg/mL)
Reply numerically in µg/mL, unit not repeated.

Tell me the measured MIC50 of C[C@H]1COc2c(N3CCN(C)CC3)c(F)cc3c(=O)c(C(=O)O)cn1c23.C[C@H]1COc2c(N3CCN(C)CC3)c(F)cc3c(=O)c(C(=O)O)cn1c23.O , please.
16

Tell me the measured MIC50 of NCC[C@H](O)C(=O)N[C@@H]1C[C@H](N)[C@@H](O[C@H]2O[C@H](CN)[C@@H](O)[C@H](O)[C@H]2O)[C@H](O)[C@H]1O[C@H]1O[C@H](CO)[C@@H](O)[C@H](N)[C@H]1O , please.
2

Tell me the measured MIC50 of CC[C@H]1OC(=O)[C@H](C)[C@@H](O[C@H]2C[C@@](C)(OC)[C@@H](O)[C@H](C)O2)[C@H](C)[C@@H](O[C@@H]2O[C@H](C)C[C@H](N(C)C)[C@H]2O)[C@](C)(O)C[C@@H](C)CN(C)[C@H](C)[C@@H](O)[C@]1(C)O , please.
0.5
